From: patent EP4635500A1

# Tested on: Enterobacterales
# METHOD DESCRIPTION: MIC, broth microdilution, CDC/FDA Antibiotic Resistance Isolate Bank (Example 7, Tables 8, 11, 12)
# Type: cell-based
# ASSAY CONTEXT: Klebsiella pneumoniae, KUB No. 5626, AR Bank # 129; read-out: MIC
Would you mind telling me the reported MIC of each entry?
The reply should contain only the number, in µg/mL.

May I ask what MIC has been recorded for NCC[C@H](O)C(=O)N[C@@H]1C[C@H](N)[C@@H](O[C@H]2O[C@H](CN)[C@@H](O)[C@H](O)[C@H]2O)[C@H](O)[C@H]1O[C@H]1O[C@H](CO)[C@@H](O)[C@H](N)[C@H]1O [Amikacin, amikacin] ?
32

May I ask what MIC has been recorded for CC(C)(O/N=C(\C(=O)N[C@@H]1C(=O)N2C(C(=O)[O-])=C(C[N+]3(CCNC(=O)c4ccc(O)c(O)c4Cl)CCCC3)CS[C@H]12)c1csc(N)n1)C(=O)O [Cefiderocol, cefiderocol] ?
1

May I ask what MIC has been recorded for CO/N=C(\C(=O)N[C@@H]1C(=O)N2C(C(=O)[O-])=C(C[n+]3ccn4ncccc43)CS[C@H]12)c1nsc(N)n1 [Cefozopran, cefozopran] ?
32

May I ask what MIC has been recorded for C[C@H]1COc2c(N3CCN(C)CC3)c(F)cc3c(=O)c(C(=O)O)cn1c23 [Levofloxacin, levofloxacin] ?
64
